// provenance: patent US20200390899A1

- target_or_system: human TLR8 (Homo sapiens, UniProt Q9NR97)
- Construct: host or cells: HEK293 reporter cells
- Sequence (Q9NR97 27-1041): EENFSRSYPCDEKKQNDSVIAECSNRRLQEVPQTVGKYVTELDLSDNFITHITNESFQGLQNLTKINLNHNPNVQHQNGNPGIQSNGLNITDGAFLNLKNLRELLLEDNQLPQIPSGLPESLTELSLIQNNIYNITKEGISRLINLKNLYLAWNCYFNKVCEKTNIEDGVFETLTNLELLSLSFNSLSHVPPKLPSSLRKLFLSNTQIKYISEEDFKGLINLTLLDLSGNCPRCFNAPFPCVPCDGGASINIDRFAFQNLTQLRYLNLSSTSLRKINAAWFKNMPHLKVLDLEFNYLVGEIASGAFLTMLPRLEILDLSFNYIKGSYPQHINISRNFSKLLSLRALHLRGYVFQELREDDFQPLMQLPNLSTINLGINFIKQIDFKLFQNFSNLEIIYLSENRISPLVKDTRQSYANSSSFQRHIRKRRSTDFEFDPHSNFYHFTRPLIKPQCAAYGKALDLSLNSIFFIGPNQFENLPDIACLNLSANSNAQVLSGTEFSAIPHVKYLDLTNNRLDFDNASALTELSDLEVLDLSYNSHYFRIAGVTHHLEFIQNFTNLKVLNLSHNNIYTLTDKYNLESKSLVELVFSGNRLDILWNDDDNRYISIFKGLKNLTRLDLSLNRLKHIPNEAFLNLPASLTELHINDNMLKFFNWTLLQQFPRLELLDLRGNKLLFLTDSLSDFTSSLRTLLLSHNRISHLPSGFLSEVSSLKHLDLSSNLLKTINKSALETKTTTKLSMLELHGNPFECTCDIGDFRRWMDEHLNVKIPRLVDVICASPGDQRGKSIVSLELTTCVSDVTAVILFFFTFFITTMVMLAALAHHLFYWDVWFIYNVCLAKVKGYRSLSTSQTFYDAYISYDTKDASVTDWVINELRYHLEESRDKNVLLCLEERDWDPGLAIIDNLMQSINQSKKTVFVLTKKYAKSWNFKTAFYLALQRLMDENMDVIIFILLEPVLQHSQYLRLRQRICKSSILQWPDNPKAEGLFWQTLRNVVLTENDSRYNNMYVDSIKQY
- test_summary: HEK293 NFKB reporter assay, human TLR8
- Assay type: cell-based
- experimental_parameters: Table 1b; HEK293 reporter cells expressing human TLR8; read-out: HEK293 hTLR8 EC50
observation_type: EC50 (nM)

1. CCCN(CCCNC(=O)c1ccc(OCC)cc1)C(=O)C1=Cc2ccc(-c3cccc(S(=O)(=O)N4CC(CO)C4)c3)cc2N=C(N)C1 [Bz-33]: 1920
2. CCCN(CCC(F)(F)F)C(=O)C1=Cc2ccc(-c3cccc(S(=O)(=O)N4CC(CO)C4)c3)cc2N=C(N)C1 [Bz-31]: 341
3. CCCN(OCC)C(=O)C1=Cc2ccc(-c3cccc(S(=O)(=O)N4CC(CO)C4)c3)cc2N=C(N)C1 [Bz-29]: 32
4. CCCN(CCCNC(=O)c1ccc(OCC)cc1)C(=O)C1=Cc2ccc(C(=O)Nc3ccccc3)cc2N=C(N)C1 [Bz-34]: 1040
5. CCCN(CC#CCNC(=O)OC(C)(C)C)C(=O)C1=Cc2ccc(-c3cccc(S(=O)(=O)N4CC(CO)C4)c3)cc2N=C(N)C1 [Bz-26]: 318
6. CCCN(CCCNc1ncccn1)C(=O)C1=Cc2ccc(-c3cccc(S(=O)(=O)N4CC(CO)C4)c3)cc2N=C(N)C1 [Bz-23]: 1160
7. CCCN(Cc1ccc(CN)cc1)C(=O)C1=Cc2ccc(-c3cccc(S(=O)(=O)N4CC(CO)C4)c3)cc2N=C(N)C1 [Bz-27]: 138
8. CCCN(CCCOCCCN)C(=O)C1=Cc2ccc(-c3cccc(S(=O)(=O)N4CC(CO)C4)c3)cc2N=C(N)C1 [Bz-18]: 3400
9. CCCN(CCCNC(=O)CC(C)(C)C)C(=O)C1=Cc2ccc(-c3cccc(S(=O)(=O)N4CC(CO)C4)c3)cc2N=C(N)C1 [Bz-19]: 3170
10. CCCN(CCc1ccc(OC)cc1)C(=O)C1=Cc2ccc(-c3cccc(S(=O)(=O)N4CC(CO)C4)c3)cc2N=C(N)C1 [Bz-25]: 1400
11. CCCN(CC#CCNC(=O)OC(C)(C)C)C(=O)C1=Cc2ccc(-c3cccc(S(=O)(=O)N4CC(CN(C)C)C4)c3)cc2N=C(N)C1 [Bz-28]: 42.8
